// reported luciferase signal per item
# test-target: Mitogen-activated protein kinase 7 (Homo sapiens)
# experiment-description: ERK5 transactivation activators in reporter cells, primary screen, cell-based, HTS (AID 1508626);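 further: luciferase driven by Gal4-ERK5 fusion binding five Gal4 sites before minimal TATA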
# experimental-conditions: HeLa Gal4-ERK5 transactivation, 18 h, at 5 µM, stronger effect = higher value
Activity calls are given as the source filed them.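 How the source made its calls: active means luciferase signal above three times the same-plate solvent-only control wells; inactive means the rest.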

- molecule: "CCc1cc(C(N)=S)ccn1"
  luciferase signal: "40 AU (inactive)"

Checklist item: luciferase signal tested on Mitogen-activated protein kinase 7 (Homo sapiens), entry C#C[C@]1(O)CC[C@H]2[C@@H]3CCC4=Cc5oncc5C[C@]4(C)[C@H]3CC[C@@]21C , value?
32 AU (inactive)

I'm curious: which luciferase signal was measured for Cc1cn([C@H]2C[C@H](N=[N+]=[N-])[C@@H](CO)O2)c(=O)[nH]c1=O tested on Mitogen-activated protein kinase 7 (Homo sapiens)?
44 AU (inactive)

---

# experiment-description: inhibition of endothelial tube formation, primary screen, imaging, VEGF stimulated, CD31 staining, tube area, NPC library (AID 1117340)
# experimental-conditions: VEGF-stimulated ADSC/ECFC co-culture, at 10 µM
Activity calls are given as the source filed them.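 How the source made its calls: active means compound that reduces growth-factor-driven endothelial tube area in a mixed cell culture, no cutoff stated; inactive means the rest.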
Choose the fitting class; nothing outside active, inactive is accepted.

Please review the entries below; each comes with its answer.
- molecule: "O=C1c2ccccc2CCc2ccccc21"
  answer-label: "inactive"
- molecule: "CCN(CC)CCOc1ccc(C(O)(Cc2ccc(Cl)cc2)c2ccc(C)cc2)cc1 (configuration not stated)"
  answer-label: "active"
- molecule: "O=C(CCN1CCN(CCO)CC1)N1c2ccccc2Sc2ccc(C(F)(F)F)cc21"
  answer-label: "inactive"
- molecule: "Cc1c(I)c(=O)n(-c2ccccc2)n1C"
  answer-label: "inactive"
- molecule: "CN1CC(O)c2cc(N=NC(N)=O)c(O)cc21 (configuration not stated)"
  answer-label: "inactive"

Called result for Cc1cccc(C)c1NC(=O)c1cc(S(N)(=O)=O)c(Cl)cc1O
inactive

# lookup: test call for Cc1nc2n(c(=O)c1CCN1CCC(C(=O)c3ccc(F)cc3)CC1)CCS2
inactive

Please share the test call associated with CCCCN=C(N)N=C(N)N .
inactive

Please state the recorded outcome for this molecule: CCOC(=O)[C@H](CCc1ccccc1)N[C@H]1CCc2ccccc2N(CC(=O)O)C1=O
inactive

For CCCCC(CC)COC(=O)c1ccc(N(C)C)cc1 (configuration not stated) , which call appears in the assay record?
inactive

Which result was noted for this molecule in the test: CCCCC(=O)OCC(=O)[C@H]1[C@H](C)C[C@H]2[C@@H]3C[C@H](F)C4=CC(=O)C=C[C@]4(C)[C@@]3(F)[C@@H](O)C[C@@]21C
inactive

---

# experiment-description: growth inhibition of CRL1545 osteosarcoma cells, cell-based, cisplatin and BGB IC20 combos (AID 1671464);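 further: cells exposed to compound for 96 hours before readout; 0% = vehicle DMSO and 100% = high DMSO killing control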
# experimental-conditions: measured here: with BGB IC20 combination, at 0.5 µM, stronger effect = higher value
property: inhibition
Report as: number unit

Name the reported inhibition value associated with the compound O=C1c2c(O)ccc(O)c2C(=O)c2c(NCCNCCO)ccc(NCCNCCO)c21
74%

Query: inhibition; subject: CCn1cc(C(=O)O)c(=O)c2cc(F)c(N3CCNCC3)cc21
-33.4%

Any idea what its inhibition is? The compound is O=C(O)CCCc1ccccc1
-4.31%

Entry CC(=O)OCC(CCn1cnc2cnc(N)nc21)COC(C)=O : reported inhibition = ?
4.75%

Please give the measured inhibition for this compound: O=c1[nH]cc(F)c(=O)[nH]1
-0.875%

Reference source: PubChem BioAssay
